Cited source: the supplement of paper PMC10567573

B1: MMP1 (parent)
chain: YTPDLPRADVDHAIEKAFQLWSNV

- Variants of: B1
- Measurement Protocol: protein stability index of a GFP-peptide fusion (GPS, HEK-293T) (PSI 1-6); higher = more stable;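 further: lentivirally expressed fusions sorted by FACS into six bins by GFP to DsRed ratio, PSI derived from sequencing read proportions per bin multiplied by bin number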
- Details: c terminus: a fixed tail appended
Mark n for protein stability index values under 2, and y for everything at or above.

1) QTPDLPRADVDHAIEKAFQLWSNV    y
2) YTPDLPNADVDHAIEKAFQLWSNV    n
3) YTPDLPRADVDHAIEKAFDLWSNV    y
4) YRPDLPRADVDHAIEKAFQLWSNV    y
5) YTPDLPRADVDHAIEKAGQLWSNV    y

Dear colleague, could you confirm whether YTPGLPRADVDHAIEKAFQLWSNV has protein stability index at or above 2? y

Dear colleague, could you confirm whether YTPDLNRADVDHAIEKAFQLWSNV has protein stability index at or above 2? n

Dear colleague, could you confirm whether YTPDLPRADVDHAIERAFQLWSNV has protein stability index at or above 2? n

Dear colleague, could you confirm whether YTPDLPRADVDNAIEKAFQLWSNV has protein stability index at or above 2? n

Dear colleague, could you confirm whether YTPDLPRADVDHAIQKAFQLWSNV has protein stability index at or above 2? n

Dear colleague, could you confirm whether YTPDLPRAWVDHAIEKAFQLWSNV has protein stability index at or above 2? n

Dear colleague, could you confirm whether YTPKLPRADVDHAIEKAFQLWSNV has protein stability index at or above 2? y

Dear colleague, could you confirm whether YTPDLPFADVDHAIEKAFQLWSNV has protein stability index at or above 2? y

Dear colleague, could you confirm whether YTPDLPRADVDHAIEKVFQLWSNV has protein stability index at or above 2? y

Dear colleague, could you confirm whether YTPDLPRADVDHAIEKAFQLTSNV has protein stability index at or above 2? y
